Cited source: ChEMBL document CHEMBL1157065

System: Rattus norvegicus
Assay: Anticonvulsant activity in Charles foster rat assessed as protection against maximal electroshock-induced seizures at 30 mg/kg, ip administered 1 hr before electroshock challenge
Assay type: functional
Settings: route intraperitoneal
experimental-readout: Activity (%)
Numbers only, in %.

CC(O)CO (configuration not stated) [PROPYLENE GLYCOL]    0
Oc1ccc(C2=Nc3ccccc3OC(c3ccccc3O)C2)cc1 (configuration not stated)    60
COc1cccc(C2CC(c3ccc(O)cc3)=Nc3ccccc3S2)c1 (configuration not stated)    30
Oc1ccc(C2=Nc3ccccc3OC(c3ccccc3Cl)/C2=C/Nc2ccc(Cl)cc2)cc1 (configuration not stated)    50

Report Activity for every entry below.
1. Oc1ccc(C2=Nc3ccccc3SC(c3ccc(Cl)cc3)/C2=C/Nc2ccc(Cl)cc2)cc1 (configuration not stated)
2. O=C1N=C([O-])NC1(c1ccccc1)c1ccccc1.[Na+] [PHENYTOIN SODIUM]
3. Oc1ccc(C2=Nc3ccccc3SC(c3ccc(Cl)cc3)C2)cc1 (configuration not stated)
4. COc1cccc(C2Sc3ccccc3N=C(c3ccc(O)cc3)/C2=C\Nc2ccc(Cl)cc2)c1 (configuration not stated)

**Result**
[70, 80, 70, 40]

Report Activity for every entry below.
1. COc1ccc(N/C=C2\C(c3ccc(O)cc3)=Nc3ccccc3OC2c2ccc(O)cc2)cc1 (configuration not stated)
2. Oc1ccc(C2=Nc3ccccc3SC(c3ccc(O)cc3)/C2=C/Nc2ccc(Cl)cc2)cc1 (configuration not stated)
3. COc1cccc(C2Oc3ccccc3N=C(c3ccc(O)cc3)/C2=C\Nc2ccc(Cl)cc2)c1 (configuration not stated)
4. Oc1ccc(C2=Nc3ccccc3SC(c3ccccc3Cl)/C2=C/Nc2ccc(Cl)cc2)cc1 (configuration not stated)

**Result**
[50, 60, 30, 70]
